# System: BDF1 mice, B16 melanoma ip, median survival T/C
# testDetails: NCI In Vivo Anticancer Drug Screen. Data for tumor model B16 Melanoma (intraperitoneal) in B6D2F1 (BDF1) mice
# appliedConditions: endpoint: median survival time; dose: 200.0 mg/kg/injection; schedule: Q01DX009 (ip); vehicle: Klucel (hydroxypropylcellulose) (HPC); higher = longer survival
Toxic doses and inconclusive results are not listed.
measurementName: T/C

Noted for CCOC(=O)C1=NN(c2ccccc2)C(=O)C1 : its T/C reads 97 % of control

Noted for O=C1NC(c2c(Cl)cccc2Cl)Nc2ccccc21 (stereo unspecified) : its T/C reads 103 % of control

Working through the 4 molecules below one at a time, give T/C for each.
1. O=C(Cc1ccc2cc3c(cc2c1)OCO3)NCCc1ccc2c(c1)OCO2
2. COc1ccc(-c2c(N)nc(=S)[nH]c2C(=O)O)cc1
3. O=C(O)C(Cc1cc(I)c(O)c(I)c1)c1ccccc1 (stereo unspecified)
4. CC(C)n1c(=S)[nH]c2ccccc2c1=O

Response:
1. 94 % of control
2. 94 % of control
3. 100 % of control
4. 90 % of control

---

Would you mind telling me the reported T/C of each entry?
# Tested on: BDF1 mice, B16 melanoma ip, median survival T/C
# testDetails: NCI In Vivo Anticancer Drug Screen. Data for tumor model B16 Melanoma (intraperitoneal) in B6D2F1 (BDF1) mice
# appliedConditions: endpoint: median survival time; dose: 12.5 mg/kg/injection; schedule: Q01DX009 (ip); vehicle: Klucel (hydroxypropylcellulose) (HPC); higher = longer survival
Inconclusive results and toxic doses are left out.

Working through the 4 molecules below one at a time, give T/C for each.
1. Clc1ccc2sc3c(c2c1)CCNC3
2. CCCCCCCCCCCCCCCC(=O)N(CCCN)C(C)CCCN(CC)CC (stereo unspecified)
3. Cc1ccc(NC(=O)c2cccc(C(=O)Nc3ccc(C)cc3C)c2)c(C)c1
4. C=CCOCC(O)CN(CC(C)C)CC(C)C (stereo unspecified)

Response:
["94 % of control", "105 % of control", "115 % of control", "104 % of control"]

Working through the 2 molecules below one at a time, give T/C for each.
1. O=S1(=O)CC(Cl)(Br)C1 (tested in a mixture with another compound)
2. FC(F)(F)C(=Cc1nc2ccccc2s1)C(F)(F)F

Response:
105 % of control
100 % of control

---

# Tested on: BDF1 mice, B16 melanoma ip, median survival T/C
# testDetails: NCI In Vivo Anticancer Drug Screen. Data for tumor model B16 Melanoma (intraperitoneal) in B6D2F1 (BDF1) mice
# appliedConditions: endpoint: median survival time; dose: 10.0 mg/kg/injection; schedule: Q01DX009 (ip); vehicle: saline with Tween-80; higher = longer survival
# Procedure: The antitumor activity of compounds was measured in mice bearing transplantable tumors. Survival or tumor size were measured and the results are expressed as the measurement made in the treated group (T) divided by the measurement made in the vehicle treated control group (C). The tumor model used in this assay is B16 Melanoma (intraperitoneal) in B6D2F1 (BDF1) mice
Toxic doses and inconclusive results are not listed.
Would you mind telling me the reported T/C of each entry?

Reference set (3 entries):
Noted for CCCCCCCCCCCCCCCCCC(=O)NCNC(=O)CCCCCCCCCCCCCCCCC : its T/C reads 87 % of control

Noted for CC[C@@H]1C[C@H]2CC3c4[nH]c5ccccc5c4CCN(C2)C31 : its T/C reads 107 % of control

Noted for Clc1ccc2c3c(cccc13)CC2 : its T/C reads 92 % of control

Now examine the next entry.
Noted for Cc1noc2c1ncc[n+]2[O-] : its T/C reads 119 % of control

---

# Test system: BDF1 mice, B16 melanoma ip, median survival T/C
# testDetails: NCI In Vivo Anticancer Drug Screen. Data for tumor model B16 Melanoma (intraperitoneal) in B6D2F1 (BDF1) mice
# appliedConditions: endpoint: median survival time; dose: 1.5 mg/kg/injection; schedule: Q01DX009 (ip); vehicle: Klucel (hydroxypropylcellulose) (HPC); higher = longer survival
Inconclusive results and toxic doses are left out.
measurementName: T/C

Reference set (4 entries):
Entry O=C(CCN1CC1)OC1CCCC1 under BDF1 mice, B16 melanoma ip, median survival T/C had T/C of 105 % of control

Entry C=C(C)[C@@H]1CC[C@]2(C)CC[C@]3(C)[C@H](CC[C@@H]4[C@@]5(C)CC[C@H](O)C(C)(C)[C@@H]5CC[C@]43C)[C@@H]12 under BDF1 mice, B16 melanoma ip, median survival T/C had T/C of 95 % of control

Entry CCCCCCCCNc1cc2c3c(c1)CCCN3CCC2 under BDF1 mice, B16 melanoma ip, median survival T/C had T/C of 97 % of control

Entry CCCCCC[N+](CCCCCC)(CCCCCC)CCCCCC under BDF1 mice, B16 melanoma ip, median survival T/C had T/C of 90 % of control

Now examine the next entry.
Entry C=C(OC1C(C)=C2C(C1OC(=O)CCCCCCC)C(C)(OC(C)=O)CC(OC(=O)CCC)C1(O)C2OC(=O)C1(C)O)/C(C)=C/C (stereo not given) under BDF1 mice, B16 melanoma ip, median survival T/C had T/C of 99 % of control

---

# Test system: BDF1 mice, B16 melanoma ip, median survival T/C
# testDetails: NCI In Vivo Anticancer Drug Screen. Data for tumor model B16 Melanoma (intraperitoneal) in B6D2F1 (BDF1) mice
# appliedConditions: endpoint: median survival time; dose: 200.0 mg/kg/injection; schedule: Q01DX009 (ip); vehicle: saline with Tween-80; higher = longer survival
Toxic doses and inconclusive results are not listed.
measurementName: T/C

Reference set (2 entries):
Noted for CCCCNC(=O)Nc1ccc(C(=O)OCCCC)cc1 : its T/C reads 93 % of control

Noted for CN1NCc2cncnc21 : its T/C reads 97 % of control

Working through the 4 compounds below one at a time, give T/C for each.
1. Cc1ccccc1SSc1ccccc1C
2. Ic1ccccc1C[N+]12CN3CN(CN(C3)C1)C2
3. NC(=O)C(Cl)(Cl)Cl
4. C#CC(C)(C)OCC(CCl)OC(N)=O (stereo not drawn)

Response:
1. 98 % of control
2. 105 % of control
3. 96 % of control
4. 95 % of control

Working through the 5 compounds below one at a time, give T/C for each.
1. CC/C(C)=C(/C(=O)O)c1ccccc1
2. O=C(NC(Cc1ccc(O)cc1)C(=O)O)c1ccccc1 (stereo not drawn)
3. O=C1O/C(=C\c2ccccc2)c2c(Br)c(Br)c(Br)c(Br)c21
4. CCOc1ccc(NC(=O)C(C)O)cc1 (stereo not drawn)
5. CCOC(=O)C(=CN1CCCCC1)C(=O)OCC

Response:
["94 % of control", "89 % of control", "112 % of control", "97 % of control", "100 % of control"]

---

Would you mind telling me the reported T/C of each entry?
# Test system: BDF1 mice, B16 melanoma ip, median survival T/C
# testDetails: NCI In Vivo Anticancer Drug Screen. Data for tumor model B16 Melanoma (intraperitoneal) in B6D2F1 (BDF1) mice
# appliedConditions: endpoint: median survival time; dose: 75.0 mg/kg/injection; schedule: Q04DX003 (ip); vehicle: Klucel (hydroxypropylcellulose) (HPC); higher = longer survival
Inconclusive results and toxic doses are left out.

Noted for COC(=O)c1cc(C)c(Br)c(N)c1 : its T/C reads 92 % of control

Noted for Cc1cc(C)c(-c2c(C)cc(C)c(N)c2C)c(C)c1N : its T/C reads 91 % of control

Noted for Cc1ccc(NC(=S)NC(Cc2ccccc2)c2ccccc2)c(C)c1 (centres undefined) : its T/C reads 94 % of control

Now examine the next entry.
Noted for Cc1ccc(OC(=O)/C=C/C(=O)Oc2ccc(C)cc2)cc1 : its T/C reads 89 % of control

---

# Tested on: BDF1 mice, B16 melanoma ip, median survival T/C
# testDetails: NCI In Vivo Anticancer Drug Screen. Data for tumor model B16 Melanoma (intraperitoneal) in B6D2F1 (BDF1) mice
# appliedConditions: endpoint: median survival time; dose: 100.0 mg/kg/injection; schedule: Q01DX009 (ip); vehicle: Klucel (hydroxypropylcellulose) (HPC); higher = longer survival
Inconclusive results and toxic doses are left out.
measurementName: T/C

Reference set (5 entries):
Noted for CC12C=CC3(CCC4C(C)(C)C(O)C(=O)CC4(C)C3CC1=O)C2 (configuration not stated) : its T/C reads 97 % of control

Noted for COC(=O)CCNCc1ccccc1 : its T/C reads 100 % of control

Noted for COC(=O)[C@@H]1[C@H](O)[C@H](C)[C@H](O)[C@H](C)/C=C\C=C(C)C(=O)Nc2c(C)c(OC(C)=O)c3c(c2O)C(=O)C(C)=C2OCOC(=C23)C(C)=C[C@@](C)(O)[C@H](O)[C@@H](C)[C@H]1OC(C)=O : its T/C reads 104 % of control

Noted for COc1ccc(NCc2ccc(C)cc2)cc1 : its T/C reads 91 % of control

Noted for CCCCCCCCCCCCCCCC(=O)N(CCC#N)C(C)(C)CCC(C)(C)N(CCC#N)C(=O)CCCCCCCCCCCCCCC : its T/C reads 91 % of control

Working through the 4 compounds below one at a time, give T/C for each.
1. CCCCCCCCC(=O)NCCOC
2. COC1C(O)C(C)OC(OC2C(Oc3cccc4c(O)c5c(=O)oc6ccc(C)c7c(=O)oc(c34)c5c67)OC(C)C(O)C2O)C1O (configuration not stated)
3. CC(CCc1ccccc1)NC(C)C(O)c1ccc(O)cc1 (configuration not stated)
4. CCOc1ccccc1NC(=O)COc1ccc(Cl)cc1

Response:
1. 101 % of control
2. 119 % of control
3. 115 % of control
4. 106 % of control

Working through the 3 compounds below one at a time, give T/C for each.
1. Cc1ccc(C)c(NC(=O)c2ccccc2Cl)c1
2. Cc1ccc2c(c1)CN(Cc1ccccc1)CO2
3. NNC(=O)Cc1nc2ccccc2[nH]c1=O

Response:
118 % of control
93 % of control
96 % of control
